Experiment: Cell Viability - LYMP1-002 - Assay at 40 hr (AID 994); further: nearly all actives have a fitted effect of over 60% in size
Conditions: LYMP1-002 lymphoblastoid cell viability; series mostly up to 92.2 µM
Records with an inconclusive call do not appear. Activity calls are given as the source filed them. The call rests on the fitted dose curve; in most records, active means well fitted cell-killing curve with a large enough effect; inconclusive means small, poorly fitted or top-dose-only effect; inactive means flat fitted curve, though single readings scatter.
A correct response names exactly one class from yes (1) = active, no (0) = inactive

Query string: Could you please tell me the result logged for O=c1[nH]c(=O)n([C@H]2C[C@H](O)[C@@H](CO)O2)cc1Br in this assay?
Result string: no (0)

Query string: Next: CN=C(NC#N)NCCSCc1nc[nH]c1C
Result string: no (0)

Query string: Try this compound next: NC(=Nc1ccccc1)Nc1ccccc1
Result string: no (0)

Query string: Can you handle CCCCOCCOCCOCc1cc2c(cc1CCC)OCO2 next?
Result string: no (0)

Query string: Same question for COC(=O)[C@H]1[C@H]2C[C@@H]3c4[nH]c5cc(OC)ccc5c4CCN3C[C@H]2C[C@@H](OC(=O)c2cc(OC)c(OC)c(OC)c2)[C@@H]1OC please.
Result string: yes (1)

Query string: Also NC(=O)N1c2ccccc2C=Cc2ccccc21 , if possible.
Result string: no (0)
